Tested on: RAW264.7
test.description: Antiinflammatory activity in mouse RAW264.7 cells assessed as reduction in LPS-induced nitric oxide production at 1 nM incubated for 2 hrs prior to LPS challenge measured after 24 hrs by Griess assay
Format: functional
Set-up: scale not given: the % may be the effect or the level left
The source made the active and inactive calls. The calls are words filed in the database; no cut-off is given here.
reported.endpoint: Activity

>>> df
                                   compound  reported_endpoint  result
0          COc1ccc2c(c1)CCN2CCCNC(C)C.Cl.Cl           Activity     50%
1              CC(C)NCCCN1CCc2ccccc21.Cl.Cl           Activity     50%
2  COC(=O)CCC1CNc2ccccc21 (centres undefined)           Activity  Active
3                      Cl.NCCCN1CCc2ccccc21           Activity  Active

---

System: RAW264.7
test.description: Cytoprotective activity against H2O2-induced oxidative stress in mouse RAW264.7 cells assessed as decrease in LDH release at 1 pM incubated for 2 hrs prior to H2O2 addition by colorimetric assay relative to control
Parameters: scale not given: the % may be the effect or the level left
I'd appreciate it if you could supply Activity values for the items below.
Answer with a number only, understood to be in %.

Record request: Activity value, item COC(=O)CCN1CCc2cc(OC)ccc21.Cl
16

Entry Cl.NCCCN1CCc2ccccc21 please
16

Entry COC(=O)CCN1CCc2ccccc21.Cl please
16

Entry CC(C)NC(=O)CCN1CCc2ccccc21.Cl please
16

Entry CC(C)NCCCN1CCc2ccccc21.Cl.Cl please
16

Entry Cl.OCCCN1CCc2ccccc21 please
16

---

I'd appreciate it if you could supply viability at 24 h, 0.001 µM values for the items below.
test.description: Cytotoxicity against mouse RAW264.7 cells assessed as cell viability at 10^-9 M after 24 hrs by MTT assay relative to control
Format: cell-based
stated.conditions: read-out: Activity
Answer with a number only, understood to be in %.

Record request: viability at 24 h, 0.001 µM value, item COC(=O)CCN1CCc2ccccc21.Cl
92.6

Entry COC(=O)CCC1CNc2ccccc21 (configuration not stated) please
97.1

Entry Cl.OCCCN1CCc2ccccc21 please
95.1

Entry CC(C)NC(=O)CCN1CCc2cc(Cl)ccc21 please
97.9

Entry CC(C)NCCCN1CCc2ccccc21.Cl.Cl please
92.1

Entry COC(=O)CCN1CCc2cc(Cl)ccc21.Cc1ccc(S(C)(=O)=O)cc1 please
104

Entry COc1ccc2c(c1)CCN2CCCO.Cl please
95.3

---

Test system: RAW264.7
test.description: Cytoprotective activity against H2O2-induced oxidative stress in mouse RAW264.7 cells assessed as cell viability at 10 nM incubated for 2 hrs prior to H2O2 addition measured after 24 hrs by MTT assay (reference value: 68 to 72.8%)
Assay type: functional
stated.conditions: read-out: Activity
reported.endpoint: viability at 0.01 µM (%)
Answer with a number only, understood to be in %.

Can you look up viability at 0.01 µM on RAW264.7 for c1ccc2c(c1)CCN2 ?
90.4

Entry COc1ccc2c(c1)CCN2CCCNC(C)C.Cl.Cl please
87.1

Entry COC(=O)CCN1CCc2ccccc21.Cl please
85.9

Entry COC(=O)CCN1CCc2ccc(C)cc21 please
87.2

---

test.description: Cytotoxicity against mouse RAW264.7 cells assessed as cell viability at 10^-8 M after 24 hrs by MTT assay relative to control
Assay type: cell-based
stated.conditions: read-out: Activity
reported.endpoint: viability at 24 h, 0.01 µM (%)
Answer with a number only, understood to be in %.

Record request: viability at 24 h, 0.01 µM value, item CC(C)NC(=O)CCN1CCc2cc(Cl)ccc21
104

Entry CC(C)NCCCN1CCc2ccccc21.Cl.Cl please
90.9

Entry COC(=O)CCC1CNc2ccccc21 (configuration not stated) please
94.5

Entry COC(=O)CCN1CCc2cc(Cl)ccc21.Cc1ccc(S(C)(=O)=O)cc1 please
107

Entry COC(=O)CCN1CCc2ccccc21.Cl please
91.8

Entry COc1ccc2c(c1)CCN2CCCO.Cl please
91.4

Entry Cl.OCCCN1CCc2ccccc21 please
92.3

---

test.description: Cytotoxicity against mouse RAW264.7 cells assessed as cell viability at 10^-11 M after 24 hrs by MTT assay relative to control
Format: cell-based
stated.conditions: read-out: Activity
I'd appreciate it if you could supply viability at 24 h, 1e-05 µM values for the items below.
Answer with a number only, understood to be in %.

Record request: viability at 24 h, 1e-05 µM value, item COC(=O)CCN1CCc2ccccc21.Cl
91.5

Entry COc1ccc2c(c1)CCN2CCCO.Cl please
93.4

Entry CC(C)NC(=O)CCN1CCc2cc(Cl)ccc21 please
96.3

Entry Cl.OCCCN1CCc2ccccc21 please
89.9

Entry COC(=O)CCC1CNc2ccccc21 (configuration not stated) please
93.2

Entry CC(C)NCCCN1CCc2ccccc21.Cl.Cl please
102

Entry COC(=O)CCN1CCc2cc(Cl)ccc21.Cc1ccc(S(C)(=O)=O)cc1 please
106

---

Tested on: RAW264.7
test.description: Antiinflammatory activity in mouse RAW264.7 cells assessed as reduction in LPS-induced nitric oxide production at 100 pM incubated for 2 hrs prior to LPS challenge measured after 24 hrs by Griess assay
Assay type: functional
The source made the active and inactive calls. No cut-off for these calls is given here.
reported.endpoint: Activity

In [3]: df
Out[3]:
                                   compound  tested_target  reported_endpoint  result
0  COC(=O)CCC1CNc2ccccc21 (centres undefined)       RAW264.7           Activity  Active
1                      Cl.NCCCN1CCc2ccccc21       RAW264.7           Activity  Active
2                  COc1ccc2c(c1)CCN2CCCO.Cl       RAW264.7           Activity     50%
3             CC(C)NC(=O)CCN1CCc2ccccc21.Cl       RAW264.7           Activity     50%
